Target: DRB1*07:01
Conditions: modification not given
ENDPOINT: pIC50
The read-out pIC50 is expressed as -log10 of concentration in moles per litre.

Input line: Item under review: NSPRRARSVASQSII [… (position 679)] . Reported pIC50?
Output line: 6.69
